system: HOP-92 NSCLC; assay: NCI tumour cell line growth inhibition, 48 h
PROPERTY LABEL: log10 TGI (log10 of the value in µM)

COMPOUND: CCN(CC)CCCC(Cc1ccccc1)Nc1c2ccc(Cl)cc2nc2ccc(OC)cc12 (stereo not drawn)
log10 TGI: 0.69
--
COMPOUND: Cc1sc(Nc2ccccc2[N+](=O)[O-])c(C#N)c1C
log10 TGI: 1.72
--
COMPOUND: COc1ccc2c(c1)/C(=C\c1c(Cl)n(C)c3ccccc13)C(=O)N2
log10 TGI: 1.47
--
COMPOUND: N#Cc1c(-c2cccc(Cl)c2)cc(-c2ccc(Cl)cc2)nc1N
log10 TGI: 1.40
--
COMPOUND: O=C1/C(=C/c2ccccc2F)CN(C(=O)C(Cl)Cl)C/C1=C\c1ccccc1F
log10 TGI: 0.53

----------
test system: EKVX NSCLC; assay: NCI tumour cell line growth inhibition, 48 h
PROPERTY LABEL: TGI

COMPOUND: CC(=O)c1ccc(NC(=O)C(=O)C(C(=O)c2ccc(Cl)c(Cl)c2)C2OC(=O)c3ccccc32)cc1 (stereo not given)
PROPERTY LABEL: TGI
VALUE: > 100 µM
--
COMPOUND: CSc1ccc(-c2cc(-c3nc4ccccc4[nH]3)nc(N)c2C#N)cc1
PROPERTY LABEL: TGI
VALUE: > 100 µM
--
COMPOUND: CC1(C)CCCCCCC2CC2CCCCCC(C)(C)C1=O (stereo not given)
PROPERTY LABEL: TGI
VALUE: > 100 µM
--
COMPOUND: CCOC(=O)N[C@@H]1C2CC(=O)C(O2)[C@@H]1OC (stereo not given in full)
PROPERTY LABEL: TGI
VALUE: > 100 µM
--
COMPOUND: O=[N+]([O-])c1ccc(N/N=C(\c2ccccc2)c2ccccn2)nc1
PROPERTY LABEL: TGI
VALUE: 17.3 µM

----------
U251 CNS GI50 data

MOLECULE: Cn1ccnc1C(=O)/C=C/c1ccc(CC(=O)Nc2ccc(F)cc2)cc1
GI50: 1.4 µM
//
MOLECULE: CCN(CC)CCCC(Cc1ccccc1)Nc1c2ccc(Cl)cc2nc2ccc(OC)cc12 (configuration not stated)
GI50: 1.56 µM
//
MOLECULE: Oc1ccc(-c2cn3cc(Cl)sc3n2)cc1
GI50: > 100 µM
//
MOLECULE: C=CC[C@@H]1/C=C(\C)C[C@H](C)C[C@H](OC)[C@H]2O[C@@](O)(C(=O)C(=O)N3CCCC[C@H]3C(=O)O[C@H](/C(C)=C/C3CC[C@@H](O)[C@H](OC)C3)[C@H](C)[C@@H](O)CC1=O)[C@H](C)C[C@@H]2OC (some centres not stated)
GI50: 14.2 µM
//
MOLECULE: Nc1ccc(-c2nc3ccccc3o2)cc1S
GI50: 10.8 µM
//
MOLECULE: O=C1CC[C@H](c2ccc(O)c3c2C(=O)[C@@H]2O[C@@H]2C3=O)c2cccc(O)c21
GI50: 11.6 µM
//
MOLECULE: NC1=CC(=O)c2nc3ccccc3c3ccnc1c23
GI50: 2.17 µM
//
MOLECULE: C/C(=C\CCc1ccsc1)CC/C=C(\C)CCCN1CCC(CO)CC1
GI50: 1.42 µM
//
MOLECULE: CCCC1=C(C(=O)OCC)C(c2ccccc2OC)C(C#N)=C(N)O1 (configuration not stated)
GI50: 44.7 µM
//
MOLECULE: Cc1cc(C)c2nc3nc(C)cc(C)c3c(N)c2c1
GI50: 4.3 µM
//
MOLECULE: O=S(=O)(CCNCc1ccc(-c2ccc3ncnc(Nc4ccc(OCc5cccc(F)c5)c(Cl)c4)c3c2)o1)c1ccccc1
GI50: > 25 µM
//
MOLECULE: O=C(NCCNc1nccc(-c2c(-c3ccc(F)cc3)nc3sccn23)n1)c1ccccc1
GI50: 8.57 µM

----------
system: UO-31 renal; experiment: NCI tumour cell line growth inhibition, 48 h; in the data active = GI50 below about 0.43 µM; inactive = the rest
Classes used: active, inactive

COMPOUND: N#C/C(=C1C=C/C(=N\O)C(Cl)=C\1)c1ccccc1
TARGET OR SYSTEM: UO-31 renal
CLASS NAME: inactive
//
COMPOUND: CC1(C)N=C(N)N=C(N)N1c1cccc(CCCCOc2ccccc2)c1
TARGET OR SYSTEM: UO-31 renal
CLASS NAME: inactive
//
COMPOUND: Cc1cc2cc3cc(C)c(N)cc3[n+](C)c2cc1N
TARGET OR SYSTEM: UO-31 renal
CLASS NAME: inactive
//
COMPOUND: O=C1CC[C@H](c2ccc(O)c3c2C(=O)[C@@H]2O[C@@H]2C3=O)c2cccc(O)c21
TARGET OR SYSTEM: UO-31 renal
CLASS NAME: inactive
//
COMPOUND: Nc1ccc(-c2nc3ccccc3o2)cc1S
TARGET OR SYSTEM: UO-31 renal
CLASS NAME: inactive
//
COMPOUND: Oc1ccc(-c2cn3cc(Cl)sc3n2)cc1
TARGET OR SYSTEM: UO-31 renal
CLASS NAME: inactive
//
COMPOUND: CCC[CH2][Sn]1([CH2]CCC)[O]CC(CN2CCOCC2)[O]1 (centres undefined)
TARGET OR SYSTEM: UO-31 renal
CLASS NAME: inactive
//
COMPOUND: C/C(=C\CCc1ccsc1)CC/C=C(\C)CCCN1CCC(CO)CC1
TARGET OR SYSTEM: UO-31 renal
CLASS NAME: inactive
//
COMPOUND: CCN(CC)CCCC(Cc1ccccc1)Nc1c2ccc(Cl)cc2nc2ccc(OC)cc12 (centres undefined)
TARGET OR SYSTEM: UO-31 renal
CLASS NAME: inactive
//
COMPOUND: CCOC(=O)c1c(Cl)c2c(n1Cc1cccc(OC)c1)-c1oncc1CC2
TARGET OR SYSTEM: UO-31 renal
CLASS NAME: inactive
//
COMPOUND: C=Cc1cc(OC)c2c(c1)c(=O)oc1c2cc(OC)c2c(O)ccc(C3OC(C)C(O)C(C)(O)C3O)c21 (centres undefined)
TARGET OR SYSTEM: UO-31 renal
CLASS NAME: active
//
COMPOUND: O=C(Nc1ccc(OCc2nnc(-c3ccccc3)o2)c(F)c1)Nc1ccc(Cl)c(C(F)(F)F)c1
TARGET OR SYSTEM: UO-31 renal
CLASS NAME: inactive
//
COMPOUND: COc1nc(N)nc2c1ncn2[C@@H]1O[C@H](CO)[C@@H](O)[C@@H]1O
TARGET OR SYSTEM: UO-31 renal
CLASS NAME: inactive
//
COMPOUND: Cc1c(-c2nnc(-c3ccc(F)cc3)o2)nnn1-c1ccnc2c(C(F)(F)F)cccc12
TARGET OR SYSTEM: UO-31 renal
CLASS NAME: inactive

----------
system: KM12 colon; test: NCI tumour cell line growth inhibition, 48 h; in the data active means GI50 below about 0.43 µM; inactive means the rest
Possible outcomes: 1.0 (active), 0.0 (inactive)

MOLECULE: Cn1ccnc1C(=O)/C=C/c1ccc(CC(=O)Nc2ccc(F)cc2)cc1
CLASS NAME: 0.0

MOLECULE: COC1=CC(c2ccc[nH]2)=N/C1=C\c1[nH]c(C)c(C(C)=O)c1C
CLASS NAME: 1.0

MOLECULE: O=C(CN1C(=O)S/C(=C\C(Cl)=C\c2ccccc2)C1=O)NCCc1ccc(O)cc1
CLASS NAME: 0.0

MOLECULE: CC1(C)N=C(N)N=C(N)N1c1cccc(CCCCOc2ccccc2)c1
CLASS NAME: 1.0

MOLECULE: Cc1ccc(NC2=C(Cl)C(=O)N(Cc3ccccc3)C2=O)cc1Cl
CLASS NAME: 0.0

MOLECULE: CCN(CC)CCCCNc1ncc2cc(-c3cc(OC)cc(OC)c3)c(NC(=O)NC(C)(C)C)nc2n1
CLASS NAME: 0.0

MOLECULE: COc1ccc(CCN2CCC(Nc3nc4ccccc4n3Cc3ccc(F)cc3)CC2)cc1
CLASS NAME: 0.0

MOLECULE: C=C(C)[C@@H]1CC[C@]2(C(=O)O)CC[C@]3(C)[C@H](CC[C@@H]4[C@@]5(C)C/C(=C/c6ccc(OC)cc6)C(=O)C(C)(C)[C@@H]5CC[C@]43C)[C@@H]12
CLASS NAME: 0.0

MOLECULE: N=c1n(Cc2ccccc2)c(N)cc(=O)n1Cc1ccccc1
CLASS NAME: 0.0

MOLECULE: O=C1/C(=C/c2ccccc2F)CN(C(=O)C(Cl)Cl)C/C1=C\c1ccccc1F
CLASS NAME: 1.0

MOLECULE: COc1cccc(Cn2c(-c3nonc3NC(C)=O)nc3ccccc32)c1
CLASS NAME: 0.0

MOLECULE: COc1cc(C2CC(c3ccccc3)=NN2C(C)=O)cc(OC)c1OC (stereo unspecified)
CLASS NAME: 0.0

MOLECULE: COc1cc(-n2cnc(-c3ccc(Cl)cc3)c2)cc(OC)c1OC
CLASS NAME: 0.0

MOLECULE: Clc1ccc(C2=NN[C@H](c3cn(-c4ccccc4)nc3-c3ccccc3)C2)cc1
CLASS NAME: 0.0

MOLECULE: NC1=CC(=O)c2nc3ccccc3c3ccnc1c23
CLASS NAME: 0.0

MOLECULE: CCCC1=C(C(=O)OCC)C(c2ccccc2OC)C(C#N)=C(N)O1 (stereo unspecified)
CLASS NAME: 0.0

src = PubChem BioAssay (NCI)
